target: tyrosinase; test: absorbance at […] nm, tyrosinase inhibition in 96-well plate; conditions: L-tyrosine substrate ([…] µL of […] in […] µL), phosphate buffer pH […], room temperature, […] min
measurement-type: pIC50
// pIC50 here means minus log10 of the molar concentration (mol/L)

IN: Give the reported pIC50 for COc1cc(C(CO)C(c2ccc(O)c(OC)c2)c2ccc(O)c(OC)c2)ccc1O (stereo not shown) [quebecol] (system: tyrosinase).
OUT: 5.99

Origin of values: paper PMC9858213
